measurement_protocol: Single dose PK in healthy subjects (Cohorts 1, 2, S1 and S2), plasma
Type: in vivo, human
conditions_used: human, plasma, iv, 134.4 mg, 134.4 mg single IV infusion, healthy subjects; read-out: Cmax Mean
Text: […]
readout_label: Cmax (ng/mL)

• COC(=O)N1CCC[C@H](NS(C)(=O)=O)[C@@H]1CO[C@H]1CC[C@@H](c2ccccc2)CC1 = 308

###

measurement_protocol: Single dose PK in healthy subjects (Cohorts 1, 2, S1 and S2), plasma
Assay type: in vivo, human
conditions_used: human, plasma, iv, 56 mg, 56 mg single IV infusion, healthy subjects; read-out: Vss Median
Description: […]
readout_label: Vd (L)

* COC(=O)N1CCC[C@H](NS(C)(=O)=O)[C@@H]1CO[C@H]1CC[C@@H](c2ccccc2)CC1 | 89.1

Values from patent US20220339143A1
